- method: Clearance in C57BL/6J mouse at 4.2 mg/kg, iv
- Assay type: ADME, organism-based
- stated.conditions: in vivo
recorded.metric: clearance
Returns: string containing the number followed by the unit.

Need clearance, item `COc1ccc(C(F)(F)F)cc1COc1ccc(CCC(=O)O)cc1C`
20 mL/min/kg

====

- system.tested: Free fatty acid receptor 1 (Homo sapiens)
- Sequence (O14842 whole entry): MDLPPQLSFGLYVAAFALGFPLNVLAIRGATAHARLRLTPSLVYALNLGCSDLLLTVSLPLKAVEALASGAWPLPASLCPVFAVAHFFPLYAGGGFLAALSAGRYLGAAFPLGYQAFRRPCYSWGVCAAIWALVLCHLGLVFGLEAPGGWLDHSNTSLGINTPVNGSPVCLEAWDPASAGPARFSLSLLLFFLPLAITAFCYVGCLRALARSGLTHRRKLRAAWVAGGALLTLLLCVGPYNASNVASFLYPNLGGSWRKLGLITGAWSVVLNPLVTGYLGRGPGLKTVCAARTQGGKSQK
- method: Agonist activity at human FFA1 receptor expressed in human U2OS cells co-expressing Galpha16 assessed as calcium mobilization by Fluo-4 dye based FLIPR assay
- Type: functional, cell-based
- stated.conditions: read-out: EC50
Mark 1 (yes) for EC50 under 10 µM, 0 (no) if at or over.

# example entries with known answers
Given `Cc1cc(CCC(=O)O)ccc1OCc1ccccc1` , is recorded EC50 strictly lower than 10 µM?
0 (no)

What do you have for `Cc1cc(COc2ccc(CCC(=O)O)cc2C)cc(Oc2ccccc2)c1` ?
1 (yes)

What do you have for `Cc1cc(CCC(=O)O)ccc1OCc1ccccc1Br` ?
0 (no)

What do you have for `Cc1cc(CCC(=O)O)ccc1OCc1ccccc1SC(F)(F)F` ?
1 (yes)

What do you have for `Cc1cc(CCC(=O)O)ccc1OCc1ccccc1C(F)(F)F` ?
1 (yes)

What do you have for `Cc1c(CCC(=O)O)ccc(OCc2ccccc2SC(F)(F)F)c1C` ?
0 (no)

What do you have for `COc1ccc(C(F)(F)F)cc1COc1ccc(CCC(=O)O)cc1C` ?
0 (no)

What do you have for `O=C(O)COc1ccc(OCc2ccccc2SC(F)(F)F)cc1` ?
0 (no)

What do you have for `Cc1cc(CCC(=O)O)ccc1OCc1cccc(C(F)(F)F)c1` ?
0 (no)

What do you have for `Cc1cc(CCC(=O)O)ccc1OCc1ccccc1OC(C)C` ?
0 (no)

Others:
Given `Cc1ccc(OC(C)C)c(COc2ccc(CCC(=O)O)cc2C)c1` , is recorded EC50 strictly lower than 10 µM?
0 (no)

What do you have for `Cc1cc(C)cc(COc2ccc(CCC(=O)O)cc2C)c1` ?
1 (yes)

What do you have for `O=C(O)CCc1ccc(OCc2ccccc2SC(F)(F)F)c2ccccc12` ?
0 (no)

What do you have for `COc1cc(CCC(=O)O)ccc1OCc1ccccc1SC(F)(F)F` ?
0 (no)
